Provide the reported Ki of each item.
tgt: UniProt:P50130
Sequence (P50130 whole entry): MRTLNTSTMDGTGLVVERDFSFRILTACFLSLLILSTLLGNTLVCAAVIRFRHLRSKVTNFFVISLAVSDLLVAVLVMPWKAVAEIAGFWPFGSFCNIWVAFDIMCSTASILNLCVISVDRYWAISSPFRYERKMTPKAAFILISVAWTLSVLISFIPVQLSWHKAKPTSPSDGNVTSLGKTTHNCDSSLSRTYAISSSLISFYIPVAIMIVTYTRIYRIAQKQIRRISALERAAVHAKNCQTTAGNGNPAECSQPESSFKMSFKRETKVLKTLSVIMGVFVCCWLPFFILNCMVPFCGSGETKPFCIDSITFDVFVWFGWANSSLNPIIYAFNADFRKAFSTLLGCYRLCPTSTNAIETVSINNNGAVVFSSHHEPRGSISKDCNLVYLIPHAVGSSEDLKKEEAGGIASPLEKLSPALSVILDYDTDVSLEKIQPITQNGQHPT
test-method-notes: Displacement of [3H]SCH23390 from dopamine D1 receptor in porcine cerebral cortex after 60 mins
Kindly answer with a numeric value in µM, unit omitted.

Name the reported Ki value associated with the compound COc1ccccc1N1CCN(CCCCNC(=O)c2ccc(-c3ccccc3)cc2)CC1
0.57

Ok, now CCCN(CCCCNC(=O)c1ccc(-c2ccccc2)cc1)C1CCn2ncc(Cl)c2C1 (configuration not stated)
3.6

Ok, now CCCN(CCCCNC(=O)c1ccc(-c2ccccc2)cc1)C1Cc2cccn3ncc(c23)C1 (configuration not stated)
1.8

Ok, now CCCN(CCCCNC(=O)c1ccc(-c2ccccc2)cc1)C1CCn2nccc2C1 (racemic)
6.8

Ok, now CCCN(CCC)[C@@H]1CCn2nccc2C1
68

Ok, now CCCN(CCCCNC(=O)c1ccc(-c2ccccc2)cc1)C1CCn2ncc(C=O)c2C1 (configuration not stated)
23

Ok, now CCCN(CCC)[C@H]1CCn2nccc2C1
53

The reported numbers originate from ChEMBL document CHEMBL1765048.
